Kindly state pIC50 for each of the entries shown.
- SYSTEM UNDER TEST: Flag/GST-tagged recombinant human B-Raf (Homo sapiens)
- Construct: Flag; GST; E. coli (MEK1-GST)
- Sequence (P15056 whole entry): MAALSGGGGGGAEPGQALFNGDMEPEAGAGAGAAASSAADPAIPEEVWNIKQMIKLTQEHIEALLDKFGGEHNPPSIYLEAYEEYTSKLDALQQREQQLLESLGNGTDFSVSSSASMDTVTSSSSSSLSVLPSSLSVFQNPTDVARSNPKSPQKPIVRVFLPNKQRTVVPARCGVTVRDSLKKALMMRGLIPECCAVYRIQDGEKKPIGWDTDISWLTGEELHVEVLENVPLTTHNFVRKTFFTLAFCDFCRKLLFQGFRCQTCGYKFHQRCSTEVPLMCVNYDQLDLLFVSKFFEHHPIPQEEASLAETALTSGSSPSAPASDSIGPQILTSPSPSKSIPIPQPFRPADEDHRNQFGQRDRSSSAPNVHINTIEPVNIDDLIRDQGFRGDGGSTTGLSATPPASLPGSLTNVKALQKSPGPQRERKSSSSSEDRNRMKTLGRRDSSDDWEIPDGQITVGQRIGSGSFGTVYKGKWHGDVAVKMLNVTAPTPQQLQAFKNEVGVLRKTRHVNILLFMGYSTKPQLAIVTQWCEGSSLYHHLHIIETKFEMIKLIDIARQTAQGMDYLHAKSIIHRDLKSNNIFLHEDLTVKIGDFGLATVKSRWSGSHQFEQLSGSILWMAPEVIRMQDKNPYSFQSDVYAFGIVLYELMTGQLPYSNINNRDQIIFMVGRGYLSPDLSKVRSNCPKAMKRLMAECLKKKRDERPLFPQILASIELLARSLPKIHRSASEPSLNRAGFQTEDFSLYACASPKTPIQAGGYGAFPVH
- MEASUREMENT DESCRIPTION: B-Raf kinase assay (phosphorylation of GST-MEK1, DELFIA readout)
- PROTOCOL CONDITIONS: B-Raf 0.2 nM, non-active GST-MEK1 2.8 nM, 45 minutes at RT; compound 1 μM to 3 nM or 0.1 uM to 300 pm in half log dilutions
- Experimental: Testing For B-Raf Kinase Inhibitors Compounds of Formula A were tested as B-Raf Kinase inhibitors that can inhibit growth of tumor cells which contain oncogenic forms of Receptor Tyrosine Kinases or K-Ras, or B-Raf kinase. […] B-Raf1 Kinase Assay Procedure: B-Raf-1 is used to phosphorylate GST-MEK1. MEK1 phosphorylation is measured by a phospho-specific antibody (from Cell Signaling Technology, Cat. #9121) that detects phosphorylation of two serine residues at positions 217 and 221 on MEK1. […]
To interpret pIC50, take it as minus log10 of a concentration measured in moles per litre.

input: What pIC50 value was documented for this compound, CN1CCCN(c2ccc(-c3cnnc4c(-c5cccc(O)c5)c(-c5ccncc5)nn34)cn2)CC1 [Example 6] ?
output: 8.70

input: Next: Cc1c(S(=O)(=O)c2ccccc2)nnc2c(-c3cccc(O)c3)c(-c3ccncc3)nn12 [Example 9]
output: 7.26

input: Quick one: Oc1cccc(-c2c(-c3ccncc3)nn3c(-c4ccc(Br)nc4)cnnc23)c1 [Example 5]
output: 7.04

input: // repeat for CN1CCN(c2ccc(-c3cnnc4c(-c5cccc(O)c5)c(-c5ccncc5)nn34)cn2)CC1 [Example 7] and report
output: 8.70

input: Would you kindly repeat that for CCOC(=O)N1C2CCC1CC(c1cnnc3c(-c4ccc(Cl)c(O)c4)c(-c4ccncc4)nn13)C2 (stereo not shown) [Example 18] ?
output: 9.52

input: Also Oc1cccc(-c2c(-c3ccncc3)nn3c(C4CCCCC4)cnnc23)c1 [Example 2] ?
output: 7.74

input: And the next one, CCOC(=O)c1nnc2c(-c3ccc(Cl)c(OC)c3)c(-c3ccncc3)nn2c1C1CC1 [Example 10] ?
output: 6.48

input: Subsequent entry: COc1cccc(-c2c(-c3ccncc3)nn3c(C)c(C(=O)N4CCN(C)CC4)nnc23)c1 [Example 3]
output: 6.00
